These measurements were taken from the supplement of paper PMC10065799.

Tested on: AncSZ
Test: phosphorylation enrichment, bacterial display (enrichment ratio); higher = better substrate or ligand; peptides without Tyr show the background;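 also: 11-residue human phosphosite peptides and single-mutation variants displayed on the E. coli surface, counted by deep sequencing, each peptide's frequency after selection divided by its frequency in the unselected input library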;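 also: frequency after pTyr selection over input frequency; kinase dosed for 20-30% of maximal phosphorylation in three min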
Label scheme for phosphorylation enrichment: lower than 1 is 0.0, 1 and above is 1.0.

- record_sequence: "ALWFIYLHTRS [ENG_Y614_S615L_YF]"
  classification: 1.0
- record_sequence: "LFDHIYTTQSD [RET_Y928]"
  classification: 1.0
- record_sequence: "AAAAMYTFLPD [MYORG_Y36]"
  classification: 1.0

stdin: Quick check: does VVTFSYKPPGN [RBL2_Y544] have phosphorylation enrichment greater than or equal to 1?
stdout: 0.0

stdin: Quick check: does CKQGKYLNWDA [ATM_Y54_S49C] have phosphorylation enrichment greater than or equal to 1?
stdout: 0.0

stdin: Quick check: does PKGTGYIKTES [STAT1_Y701_L706S] have phosphorylation enrichment greater than or equal to 1?
stdout: 0.0

---

Biological target: EPHB2 (UniProt P29323)
Sequence (P29323 whole entry, looked up): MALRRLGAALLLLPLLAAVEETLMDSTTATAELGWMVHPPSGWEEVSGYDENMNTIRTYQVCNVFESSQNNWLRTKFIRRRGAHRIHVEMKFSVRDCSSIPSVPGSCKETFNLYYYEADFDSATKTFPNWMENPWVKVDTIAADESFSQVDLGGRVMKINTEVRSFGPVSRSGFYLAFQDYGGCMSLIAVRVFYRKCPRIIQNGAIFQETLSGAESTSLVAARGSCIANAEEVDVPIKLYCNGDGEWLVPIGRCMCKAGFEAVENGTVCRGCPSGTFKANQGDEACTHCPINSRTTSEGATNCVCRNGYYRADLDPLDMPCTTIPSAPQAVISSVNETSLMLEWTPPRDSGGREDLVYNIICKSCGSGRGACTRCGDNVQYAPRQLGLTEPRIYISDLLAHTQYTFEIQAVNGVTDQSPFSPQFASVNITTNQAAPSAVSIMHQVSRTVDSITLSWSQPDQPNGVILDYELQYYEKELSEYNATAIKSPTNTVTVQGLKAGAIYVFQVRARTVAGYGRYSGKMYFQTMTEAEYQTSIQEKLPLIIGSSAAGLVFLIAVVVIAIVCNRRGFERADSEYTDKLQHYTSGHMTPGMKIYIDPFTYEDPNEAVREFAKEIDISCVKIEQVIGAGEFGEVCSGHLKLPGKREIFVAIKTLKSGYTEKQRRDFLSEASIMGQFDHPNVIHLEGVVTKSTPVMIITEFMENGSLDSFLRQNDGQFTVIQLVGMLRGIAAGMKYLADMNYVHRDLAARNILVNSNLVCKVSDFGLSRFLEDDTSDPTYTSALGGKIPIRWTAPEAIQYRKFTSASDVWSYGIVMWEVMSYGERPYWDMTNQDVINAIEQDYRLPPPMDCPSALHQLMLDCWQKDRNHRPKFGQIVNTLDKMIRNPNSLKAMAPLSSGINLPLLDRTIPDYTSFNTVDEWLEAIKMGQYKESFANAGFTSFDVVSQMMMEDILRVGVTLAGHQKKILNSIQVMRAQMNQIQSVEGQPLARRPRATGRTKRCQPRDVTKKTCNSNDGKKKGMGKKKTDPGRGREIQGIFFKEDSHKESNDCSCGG
Assay: phosphorylation enrichment, bacterial display (enrichment ratio); higher = better substrate or ligand; peptides without Tyr show the background
endpoint: phosphorylation enrichment
Answers are plain numbers.

The examples below pair each entry with its known result.
- record_sequence: "NIKKEYAKMVQ [PMS2_Y181]"
  phosphorylation enrichment: 0.413
- record_sequence: "SFVMVYEGNAR [INSR_Y1038_G1035V]"
  phosphorylation enrichment: 0.683
- record_sequence: "FEKFLYFLPAS [DYNC2H1_Y346_H341Y_YF]"
  phosphorylation enrichment: 0.735

List reported phosphorylation enrichment for each of these sequences:
1. PPTYRYERGSR [INPPL1_Y663]
2. RVQKRYIFDNV [RCN1_Y115]
3. IEEGTYGVAYR [CDK11B_Y449_V452A]
4. RLLVVFPWTQR [HBB_Y36_Y36F]

stdout:
1. 0.442
2. 0.472
3. 2.44
4. 0.766

List reported phosphorylation enrichment for each of these sequences:
1. RLDRSYSFSFS [PEAR1_Y890_YF]
2. CTTIHYNSMCN [TP53_Y234_Y236S]
3. FQLPFYNTVPS [BMPR1A_Y458_M460T_YF]
4. RAIGFYSATSK [FAM120A_Y328_YF]

stdout:
1: 0.48; 2: 0.645; 3: 0.45; 4: 0.81

List reported phosphorylation enrichment for each of these sequences:
1. RDIHDYIKHLG [UNC13C_Y308]
2. FASALYGQRRS [FGF11_Y162_R163G_YF]

stdout:
0.985
0.415

List reported phosphorylation enrichment for each of these sequences:
1. LLIMEYAKFGS [RET_Y806_V804M_YF]
2. MHLRQYELLGG [GNAS_Y391]
3. SVTCTDSPALN [TP53_Y126_Y126D]
4. TENAGYYFRIS

stdout:
1. 0.968
2. 0.453
3. 0.564
4. 0.576

List reported phosphorylation enrichment for each of these sequences:
1. SILTVYSKDNY [PANK2_Y400_A398T]
2. HFVFFYSFLLK [PTEN_Y178_R173H_YF]
3. PLDAEYFTLQI [TP53_Y327_G325A]
4. TSQSQYSSFRE [CCDC170_Y323_F324S]
5. YEEDSYSHVMA [FDPS_Y388_I391V]
6. TLQTMYGCDVG [HLA-B_Y123_S121T]
7. DNAYQYMLTDR [MYH7_Y164]

stdout:
1. 0.407
2. 0.844
3. 0.826
4. 0.77
5. 0.65
6. 0.589
7. 0.461

List reported phosphorylation enrichment for each of these sequences:
1. SDVCMYRKNIY [SYNE2_Y570]
2. FEEDSYSHIMA [FDPS_Y388_YF]
3. HNLDFYKMTTN [FGFR3_Y648_K650M_YF]
4. ALAHKYLGGGG [HBB_Y146_H147L]
5. EEETDYTPVWC [UROD_Y30_G25E]
6. NPETCYQRLKK [TK2_Y190]

stdout:
1. 0.541
2. 0.593
3. 1.1
4. 0.387
5. 0.589
6. 0.603

List reported phosphorylation enrichment for each of these sequences:
1. VGTKRYRAPEV [ACVRL1_Y375_M376R]
2. NKEAIYSGFIR [SMCHD1_Y283_YF]

stdout:
1: 0.338; 2: 7.14

List reported phosphorylation enrichment for each of these sequences:
1. LDAGEYCVPRG [BEX1_Y43]
2. LLKKMYLMLDN [STAT1_Y203]
3. HPFHVYPQPGM [BAG3_Y114]
4. KDLPNYNWKSF [KISS1_Y112_N115K]
5. KDHRDYKFQPR [SOX9_Y172_P170R_YF]
6. CRERPYGGGGG [FUS_Y526_R521C]
7. HILRVYSGVLP [PCNX4_Y999_G1000S]
8. NKYTTYLPWLP [C9orf24_Y126_R129W]

stdout:
1. 3.87
2. 0.381
3. 1.01
4. 0.529
5. 0.346
6. 0.406
7. 0.651
8. 12.8

---

Tested on: AncSZ
Test: phosphorylation enrichment, bacterial display (enrichment ratio); higher = better substrate or ligand; peptides without Tyr show the background
Would you kindly list phosphorylation enrichment for each of these sequences?
Answers are plain numbers.

The examples below pair each entry with its known result.
- record_sequence: "KQQEIYQELTQ [CD209_Y239]"
  test_result: 1.35
- record_sequence: "RGESFYQDRMN [RARS_Y338]"
  test_result: 0.746
- record_sequence: "MSRDVYSTDCY [NTRK2_Y702_Y706C]"
  test_result: 0.993
- record_sequence: "SDGHEYIYVDP [PDGFRB_Y579]"
  test_result: 3.82
- record_sequence: "SLALFYRNVYH [RBL1_Y792_K794N]"
  test_result: 0.923
- record_sequence: "KMGNEYVTKGQ [MYH7_Y410_V406M]"
  test_result: 0.447
- record_sequence: "HLLRIYYDITD [MMP27_Y307_W304L]"
  test_result: 1.46
- record_sequence: "PLDAEYFTLQI [TP53_Y327_G325A]"
  test_result: 2.57
- record_sequence: "HPWPRYTTRAP [FNDC1_Y1281_Q1280R]"
  test_result: 0.802
- record_sequence: "HRGHLYLAIEF [TEK_Y899_Y897H_YF]"
  test_result: 3.67

List reported phosphorylation enrichment for each of these sequences:
1. HILRVYSGVLP [PCNX4_Y999_G1000S]
2. PRLMLYNPTTY [EGFR_Y270_P266R]
3. CTTILYNYMCN [TP53_Y234_H233L]

stdout:
[0.968, 0.922, 1.18]

List reported phosphorylation enrichment for each of these sequences:
1. SRPTQYSSFSC [SPEM2_Y104]
2. SGGGSYGSGGG [KRT1_Y539]
3. FEHVGYTTLNR [CHN1_Y148_YF]
4. GGQDVYGDFGG [Probound]
5. RRIHSYRSHLW [VHL_Y112_G114S]
6. FEEDSYVERSQ [RET_Y905_K907E_YF]

stdout:
[0.764, 0.626, 0.654, 0.748, 0.576, 1.18]

List reported phosphorylation enrichment for each of these sequences:
1. PLAVPYLDKPP [JMJD7_Y31]
2. DFPGNYSGFDD [POLR1C_Y33_YF]

stdout:
1. 0.825
2. 0.858

---

Target: EPHB1 (UniProt P54762)
Sequence (P54762 whole entry, looked up): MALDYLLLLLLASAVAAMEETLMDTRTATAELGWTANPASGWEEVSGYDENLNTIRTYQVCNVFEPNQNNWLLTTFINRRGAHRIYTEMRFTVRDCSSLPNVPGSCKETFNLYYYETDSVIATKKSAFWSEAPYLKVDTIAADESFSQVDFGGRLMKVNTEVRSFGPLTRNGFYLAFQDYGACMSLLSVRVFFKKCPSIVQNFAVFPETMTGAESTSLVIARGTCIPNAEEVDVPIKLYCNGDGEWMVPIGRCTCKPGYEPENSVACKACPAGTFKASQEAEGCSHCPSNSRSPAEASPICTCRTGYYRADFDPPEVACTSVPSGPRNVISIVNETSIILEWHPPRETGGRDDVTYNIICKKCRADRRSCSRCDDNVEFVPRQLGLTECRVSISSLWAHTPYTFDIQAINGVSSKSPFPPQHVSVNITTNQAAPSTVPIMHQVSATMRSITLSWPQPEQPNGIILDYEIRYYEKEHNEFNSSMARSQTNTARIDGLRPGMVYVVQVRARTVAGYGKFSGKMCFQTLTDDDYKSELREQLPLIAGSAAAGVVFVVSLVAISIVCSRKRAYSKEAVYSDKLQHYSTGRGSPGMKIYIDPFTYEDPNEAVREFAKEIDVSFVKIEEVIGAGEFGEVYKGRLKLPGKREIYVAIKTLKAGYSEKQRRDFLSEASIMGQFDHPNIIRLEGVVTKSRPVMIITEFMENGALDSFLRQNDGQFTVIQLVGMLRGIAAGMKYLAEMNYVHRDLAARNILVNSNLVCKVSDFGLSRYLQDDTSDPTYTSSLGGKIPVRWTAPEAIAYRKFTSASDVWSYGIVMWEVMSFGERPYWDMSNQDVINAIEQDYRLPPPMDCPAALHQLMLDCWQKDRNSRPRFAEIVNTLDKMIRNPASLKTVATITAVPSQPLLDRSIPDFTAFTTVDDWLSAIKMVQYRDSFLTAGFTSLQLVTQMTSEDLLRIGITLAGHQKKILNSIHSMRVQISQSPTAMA
Assay: phosphorylation enrichment, bacterial display (enrichment ratio); higher = better substrate or ligand; peptides without Tyr show the background
Would you kindly list phosphorylation enrichment for each of these sequences?
Numbers only.

The examples below pair each entry with its known result.
- record_sequence: "RISGVYKLPPD [ANGPTL7_Y145]"
  endpoint: "phosphorylation enrichment"
  test_result: 0.511
- record_sequence: "INSLKYAFNIS [EIF2B5_Y583_YF]"
  endpoint: "phosphorylation enrichment"
  test_result: 0.438
- record_sequence: "TKDTFYKQPMV [GBA_Y451_F456V]"
  endpoint: "phosphorylation enrichment"
  test_result: 0.421
- record_sequence: "FADGVYLALEE [DUOX2_Y70_Q71L_YF]"
  endpoint: "phosphorylation enrichment"
  test_result: 1.19
- record_sequence: "HKDNNYISMWF [PAPOLG_Y432_V433I]"
  endpoint: "phosphorylation enrichment"
  test_result: 2.88
- record_sequence: "SQQTYCRVSNM [ABCD1_Y181_Y181C]"
  endpoint: "phosphorylation enrichment"
  test_result: 3.76
- record_sequence: "EDDIIYTQDFT [STK11_Y362]"
  endpoint: "phosphorylation enrichment"
  test_result: 0.869
- record_sequence: "DLRTGYSVPYG [TGM1_Y370_Y365D]"
  endpoint: "phosphorylation enrichment"
  test_result: 0.409

List reported phosphorylation enrichment for each of these sequences:
1. EATKGYPDDPT [G6PD_Y322_L323P]
2. FEHVGYTTLNR [CHN1_Y148_YF]
3. HLTNQFMQRVA [PABPC4_Y382_Y382F]
4. KELAPYDENCF [RPS19_Y48_W52C]

stdout:
[0.501, 0.393, 0.621, 0.628]

List reported phosphorylation enrichment for each of these sequences:
1. HHIDFYKETTN [FGFR1_Y654_K656E_YF]
2. NQDRTYFESVR [SPEN_Y632_YF]

stdout:
1.5
0.507

List reported phosphorylation enrichment for each of these sequences:
1. NKEAIYSGFIR [SMCHD1_Y283_YF]
2. VGTKRYRAPEV [ACVRL1_Y375_M376R]

stdout:
[5.18, 0.308]

List reported phosphorylation enrichment for each of these sequences:
1. INPIIYAFVGG [CCR5_Y297_E302G]
2. YPPTHYIRRMP [SLC4A11_Y820_V824M]
3. CTTIHYNSMCN [TP53_Y234_Y236S]
4. SIIKDYFHRGT [GATM_Y203_A208T]

stdout:
11.5
0.455
0.514
0.42
